System: PCSK9 gene
Assay: PCSK9 gRNA/SpCas9 editing in primary human hepatocytes (Tables 2, 4)
Type: cell-based
Details: 100 ng/RNA/mL; SpCas9 mRNA MS002 1:1 by weight
In the oligonucleotide strings, read from the 5' end, every base follows the letter of its sugar. An asterisk marks phosphorothioate; unmarked linkages are phosphodiester. Other units and linkages are bracketed, terminal groups are in braces. A string of capitals states the bases alone. m = 2'-O-methyl; r = 2'-OH (RNA)
Listed here are molecules together with their documented Human Primary Hepatocyte Editing % 100.
Please respond with the number in % and leave the unit unwritten.

Check out these entries, answers already filled in.
[[record]]
molecule = "GA234: PCSK9 gRNA; protospacer CGCCTGCCAGCGCCTGGCGA (SEQ ID NO: 252) (nucleic acid) guide: mC*mG*mC*rCrUrGrCrCrArGrCrGrCrCrUrGrGrCrGrArGrUrUrUrUrArGrArGrCrUrArGrArArArUrArGrCrArArGrUrUrArArArArUrArArGrGrCrUrArGrUrCrCrGrUrUrArUrCrArArCrUrUrGrArArArArArGrUrGrGrCrArCrCrGrArGrUrCrGrGrUrGrCrU*mU*mU*mU"
readout = "Human Primary Hepatocyte Editing % 100"
number = 0.06

[[record]]
molecule = "GA186: PCSK9 gRNA; protospacer CTCATCTTCACCAGGAAGCC (SEQ ID NO: 180) (nucleic acid) guide: mC*mU*mC*rArUrCrUrUrCrArCrCrArGrGrArArGrCrCrGrUrUrUrUrArGrArGrCrUrArGrArArArUrArGrCrArArGrUrUrArArArArUrArArGrGrCrUrArGrUrCrCrGrUrUrArUrCrArArCrUrUrGrArArArArArGrUrGrGrCrArCrCrGrArGrUrCrGrGrUrGrCrU*mU*mU*mU"
readout = "Human Primary Hepatocyte Editing % 100"
number = 0.79


Proceed to the following item.
Task: Look up Human Primary Hepatocyte Editing % 100 for this molecule: GA223: PCSK9 gRNA; protospacer GCTGACCACCCCTGCCAGGT (SEQ ID NO: 217) (nucleic acid, sugars from the 5' end m3 r94 m3, linkages s3 o93 s3 (s phosphorothioate, o phosphodiester), T or U not given here) guide: GCUGACCACCCCUGCCAGGUGUUUUAGAGCUAGAAAUAGCAAGUUAAAAUAAGGCUAGUCCGUUAUCAACUUGAAAAAGUGGCACCGAGUCGGUGCUUUU
Output: 1.44

Source: patent US20250152746A1
